Tested on: Pseudomonas aeruginosa
MEASUREMENT_PROTOCOL: Antibacterial activity against clinical isolate polymyxin resistant Pseudomonas aeruginosa FADDI-PA070 after 18 hrs by 2 fold serial dilution method
Type: functional
EXPERIMENTAL_CONTEXT: FADDI-PA070, 18 h
Bridge positions count the residues as written; N and C are the ends. Square brackets hold non-standard residues; d marks the D form. Peptide text beside a SMILES is read from it. * marks the point of attachment. Phe(4-NH2) = Nc1ccc(C[C@H](N)C(=O)O)cc1; Octanoyl = CCCCCCCC(=O)*; Dab = NCC[C@H](N)C(=O)O
MIC: recorded values

COMPOUND: CCCCCCCC(=O)NCC(=O)N[C@@H](CCN)C(=O)N[C@H](C(=O)N[C@H]1CCNC(=O)[C@H]([C@@H](C)O)NC(=O)[C@H](CCN)NC(=O)[C@H](CCN)NC(=O)[C@H](CC(C)C)NC(=O)[C@@H](Cc2ccccc2)NC(=O)[C@H](CCN)NC1=O)[C@@H](C)O (Octanoyl-G[Dab]T[Dab][Dab][dF]L[Dab][Dab]T; lactam 4-C)
SYSTEM_TESTED: Pseudomonas aeruginosa
MEASURED: > 32 µg/mL

Now for a further compound.
Query: May I ask what MIC has been recorded for CCCCCCCC(=O)N[C@@H](CCN)C(=O)N[C@H](C(=O)N[C@@H](CCN)C(=O)N[C@H]1CCNC(=O)[C@H]([C@@H](C)O)NC(=O)[C@H](Cc2ccc(N)cc2)NC(=O)[C@H](CCN)NC(=O)[C@H](CC(C)C)NC(=O)[C@@H](Cc2ccccc2)NC(=O)[C@H](CCN)NC1=O)[C@@H](C)O (Octanoyl-[Dab]T[Dab][Dab][Dab][dF]L[Dab][Phe(4-NH2)]T; lactam 4-C) ?
Response: > 32 µg/mL

* * *

System: Pseudomonas aeruginosa
MEASUREMENT_PROTOCOL: Antibacterial activity against clinical isolate polymyxin resistant Pseudomonas aeruginosa FADDI-PA070 after 18 hrs by 2 fold serial dilution method
Format: functional
EXPERIMENTAL_CONTEXT: FADDI-PA070, 18 h
Bridge positions count the residues as written; N and C are the ends. Square brackets hold non-standard residues; d marks the D form. Peptide text beside a SMILES is read from it. * marks the point of attachment. Benzoyl(4-Ph) = O=C(c1ccc(-c2ccccc2)cc1)*; Octanoyl = CCCCCCCC(=O)*; Dab = NCC[C@H](N)C(=O)O
READOUT_TYPE: MIC

MOLECULE: CC(C)C[C@@H]1NC(=O)[C@@H](Cc2ccccc2)NC(=O)[C@H](CCN)NC(=O)[C@@H](NC(=O)[C@H](CCN)NC(=O)[C@@H](NC(=O)[C@H](CCN)NC(=O)c2ccc(-c3ccccc3)cc2)[C@@H](C)O)CCNC(=O)[C@H]([C@@H](C)O)NC(=O)[C@H](CCN)NC(=O)[C@H](CCN)NC1=O ({Benzoyl(4-Ph)}-[Dab]T[Dab][Dab][Dab][dF]L[Dab][Dab]T; lactam 4-C)
SYSTEM_TESTED: Pseudomonas aeruginosa
READOUT_TYPE: MIC
MEASURED: 8 µg/mL
--
MOLECULE: CCCCCCCC(=O)N[C@@H](CCN)C(=O)N[C@H](C(=O)N[C@@H](CCN)C(=O)N[C@H]1CCNC(=O)[C@H]([C@@H](C)O)NC(=O)[C@H](CCNC(=O)[C@@H](N)CCC(=O)O)NC(=O)[C@H](CCN)NC(=O)[C@H](CC(C)C)NC(=O)[C@@H](Cc2ccccc2)NC(=O)[C@H](CCN)NC1=O)[C@@H](C)O (Octanoyl-[Dab]T[Dab][Dab][Dab][dF]L[Dab][Dab](Glu)T; lactam 4-C)
SYSTEM_TESTED: Pseudomonas aeruginosa
READOUT_TYPE: MIC
MEASURED: > 32 µg/mL
--
MOLECULE: CCCCCCCC(=O)N[C@@H](CCN)C(=O)N[C@H](C(=O)N[C@@H](CCN)C(=O)N[C@H]1CCNC(=O)[C@H]([C@@H](C)O)NC(=O)[C@H](CCN)NC(=O)[C@H](CCNC(=O)[C@@H](N)CCC(=O)O)NC(=O)[C@H](CC(C)C)NC(=O)[C@@H](Cc2ccccc2)NC(=O)[C@H](CCN)NC1=O)[C@@H](C)O (Octanoyl-[Dab]T[Dab][Dab][Dab][dF]L[Dab](Glu)[Dab]T; lactam 4-C)
SYSTEM_TESTED: Pseudomonas aeruginosa
READOUT_TYPE: MIC
MEASURED: > 32 µg/mL

Query: May I ask what MIC has been recorded for CCCCCCCC(=O)N[C@@H](CCN)C(=O)N[C@H](C(=O)N[C@@H](CCN)C(=O)N[C@H]1CCNC(=O)[C@H]([C@@H](C)O)NC(=O)[C@H](CCN)NC(=O)[C@H](CCN)NC(=O)[C@H](CC(C)C)NC(=O)[C@@H](Cc2ccccc2)NC(=O)[C@H](CCNC(=O)[C@@H](N)CCC(=O)O)NC1=O)[C@@H](C)O (Octanoyl-[Dab]T[Dab][Dab][Dab](Glu)[dF]L[Dab][Dab]T; lactam 4-C) ?
Response: > 32 µg/mL

* * *

System: Acinetobacter baumannii
MEASUREMENT_PROTOCOL: Antibacterial activity against clinical isolate carbapenem and polymyxin resistant Acinetobacter baumannii Ptyela 100734512:2 after 18 hrs by 2 fold serial dilution method
Assay type: functional
EXPERIMENTAL_CONTEXT: Ptyela 100734512:2, 18 h
Bridge positions count the residues as written; N and C are the ends. Square brackets hold non-standard residues; d marks the D form. Peptide text beside a SMILES is read from it. * marks the point of attachment. Octanoyl = CCCCCCCC(=O)*; Dab = NCC[C@H](N)C(=O)O
READOUT_TYPE: MIC

MOLECULE: CCCCCCCC(=O)N[C@H](C(=O)N[C@@H](CCN)C(=O)N[C@H]1CCNC(=O)[C@H]([C@@H](C)O)NC(=O)[C@H](CCN)NC(=O)[C@H](CCN)NC(=O)[C@H](CC(C)C)NC(=O)[C@@H](Cc2ccccc2)NC(=O)[C@H](CCN)NC1=O)[C@@H](C)O [Octanoyl Polymixin B nonapeptide] (Octanoyl-T[Dab][Dab][Dab][dF]L[Dab][Dab]T; lactam 3-C)
SYSTEM_TESTED: Acinetobacter baumannii
MIC: > 32 µg/mL

Now for a further molecule.
Query: May I ask what MIC has been recorded for CCCCCCCC(=O)N[C@@H](CCN)C(=O)N[C@H](C(=O)N[C@@H](CCN)C(=O)N[C@H]1CCNC(=O)[C@H]([C@@H](C)O)NC(=O)[C@H](CCN)NC(=O)[C@H](CCN)NC(=O)[C@H](CC(C)C)NC(=O)[C@@H](Cc2ccccc2)NC(=O)[C@H](CCCNC(=N)N)NC1=O)[C@@H](C)O (Octanoyl-[Dab]T[Dab][Dab]R[dF]L[Dab][Dab]T; lactam 4-C) ?
Response: > 32 µg/mL

* * *

System: Acinetobacter baumannii
MEASUREMENT_PROTOCOL: Antibacterial activity against clinical isolate carbapenem and polymyxin resistant Acinetobacter baumannii Ptyela 100734512:2 after 18 hrs by 2 fold serial dilution method
Format: functional
EXPERIMENTAL_CONTEXT: Ptyela 100734512:2, 18 h
Numbered stars: 1 amine (or outer) side, 2 acyl side, 3 side chain; on linkers, the order of the positions; unused ones are H or OH. Bridge positions count the residues as written; N and C are the ends. Square brackets hold non-standard residues; d marks the D form. Peptide text beside a SMILES is read from it. * marks the point of attachment. NH(2-ClPh) = Clc1ccccc1N*; Octanoyl = CCCCCCCC(=O)*; Dab = NCC[C@H](N)C(=O)O; CO = O=C([*:1])[*:2]
MIC: recorded values

Here is how some compounds turned out for MIC.
COMPOUND: CCCCCCCC(=O)N[C@@H](CCN)C(=O)N[C@H](C(=O)N[C@@H](CCN)C(=O)N[C@H]1CCNC(=O)[C@H]([C@@H](C)O)NC(=O)[C@H](CCN)NC(=O)[C@H](CCCNC(=N)N)NC(=O)[C@H](CC(C)C)NC(=O)[C@@H](Cc2ccccc2)NC(=O)[C@H](CCN)NC1=O)[C@@H](C)O
SYSTEM_TESTED: Acinetobacter baumannii
MIC: 32 µg/mL
//
COMPOUND: CC(C)C[C@@H]1NC(=O)[C@@H](Cc2ccccc2)NC(=O)[C@H](CCN)NC(=O)[C@@H](NC(=O)[C@H](CCN)NC(=O)[C@@H](NC(=O)[C@H](CCN)NC(=O)Nc2ccccc2Cl)[C@@H](C)O)CCNC(=O)[C@H]([C@@H](C)O)NC(=O)[C@H](CCN)NC(=O)[C@H](CCN)NC1=O ({NH(2-ClPh)-CO}-[Dab]T[Dab][Dab][Dab][dF]L[Dab][Dab]T; lactam 4-C)
SYSTEM_TESTED: Acinetobacter baumannii
MIC: > 32 µg/mL

Now for a further compound.
Query: May I ask what MIC has been recorded for CCCCCCCC(=O)N[C@@H](CCN)C(=O)N[C@H](C(=O)N[C@@H](CCN)C(=O)N[C@H]1CCNC(=O)[C@H]([C@@H](C)O)NC(=O)[C@H](CCCNC(=N)N)NC(=O)[C@H](CCN)NC(=O)[C@H](CC(C)C)NC(=O)[C@@H](Cc2ccccc2)NC(=O)[C@H](CCN)NC1=O)[C@@H](C)O (Octanoyl-[Dab]T[Dab][Dab][Dab][dF]L[Dab]RT; lactam 4-C) ?
Response: > 32 µg/mL

Values compiled from ChEMBL document CHEMBL3774373.
